Biological target: UniProtKB P11712
quantity kind: CYP2C9 AC50 (half-maximal activity concentration)

compound	assay result
COC(=O)c1ccccc1C(=O)c1ccc(OCCN2CCCCC2)cc1.Cl [Pitofenone hydrochloride]	Inactive
Clc1cc(Cl)c(-c2c(Cl)c(Cl)cc(Cl)c2Cl)cc1Cl	Inactive
COC(=O)c1cccc(C(=O)OC)c1 [Dimethyl isophthalate]	Inactive
O=C(Cl)c1cc(Cl)cc(Cl)c1 [3,5-Dichlorobenzoyl chloride]	Inconclusive inhibitor
CCCOc1ccc2c(c1)CC[C@@H]1[C@@H]2CC[C@]2(C)[C@@H](OC)CC[C@@H]12	Inconclusive inhibitor
O=C(Cc1ccccc1)c1ccccc1	Inconclusive inhibitor
C[As+](C)(C)CC(=O)[O-]	Inactive
C[C@]12CC[C@@H]3c4ccc(OC(=O)N(CCCl)CCCl)cc4CC[C@H]3[C@@H]1CC[C@@H]2O	Inactive
C=C(C)C(=O)OCC[N+](C)(C)C.[Cl-]	Inactive

---

Target: human CYP2D6 (Homo sapiens, UniProt P10635)
Sequence (P10635 whole entry): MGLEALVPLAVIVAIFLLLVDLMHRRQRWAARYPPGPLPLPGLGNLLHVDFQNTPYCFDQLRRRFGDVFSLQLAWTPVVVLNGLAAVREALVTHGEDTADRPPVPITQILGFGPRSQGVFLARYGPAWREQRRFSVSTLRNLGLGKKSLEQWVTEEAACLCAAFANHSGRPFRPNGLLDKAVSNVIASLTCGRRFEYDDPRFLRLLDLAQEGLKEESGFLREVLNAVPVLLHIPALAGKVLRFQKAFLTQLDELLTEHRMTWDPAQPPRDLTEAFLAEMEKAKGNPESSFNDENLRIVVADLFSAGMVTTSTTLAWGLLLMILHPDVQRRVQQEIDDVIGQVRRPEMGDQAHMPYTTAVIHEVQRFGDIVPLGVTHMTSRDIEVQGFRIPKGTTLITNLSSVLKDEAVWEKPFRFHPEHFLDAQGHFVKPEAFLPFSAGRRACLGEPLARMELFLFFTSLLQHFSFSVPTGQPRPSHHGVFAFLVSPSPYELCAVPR
Counter-ions that a name gives are not always drawn.
quantity kind: CYP2D6 AC50 (half-maximal activity concentration)

molecule	target under test	assay result
CCCCCCCCOS(=O)(=O)O [Sodium octyl sulfate]	human CYP2D6 (Homo sapiens, UniProt P10635)	Inactive
CC(C)COC(=O)C=Cc1ccccc1 [Isobutyl 3-phenylacrylate]	human CYP2D6 (Homo sapiens, UniProt P10635)	Inactive
C[C@@H]1CC[C@@]2(OC1)O[C@H]1C[C@H]3[C@@H]4CC[C@H]5C[C@@H](O)CC[C@]5(C)[C@H]4CC(=O)[C@]3(C)[C@H]1[C@@H]2C	human CYP2D6 (Homo sapiens, UniProt P10635)	Inactive
CC(=O)O[C@H]1CC[C@@]2(C)C(=CC[C@@H]3[C@@H]2CC[C@]2(C)C(C(C)=O)=CC[C@@H]32)C1 [Dehydropregnenolone acetate]	human CYP2D6 (Homo sapiens, UniProt P10635)	Inactive
N.O=C(O)C(F)(F)C(F)(F)C(F)(F)C(F)(F)C(F)(F)C(F)(F)C(F)(F)F [PFOA, ammonium salt]	human CYP2D6 (Homo sapiens, UniProt P10635)	Inactive
O=C(O)c1cc(Br)c(O)c(Br)c1 [3,5-Dibromo-4-hydroxybenzoic acid]	human CYP2D6 (Homo sapiens, UniProt P10635)	Inconclusive inhibitor
CCOC(=O)C(C#N)=C(c1ccccc1)c1ccccc1 [Ethyl 2-cyano-3,3-diphenylacrylate]	human CYP2D6 (Homo sapiens, UniProt P10635)	Inconclusive inhibitor
CCC(C)(C)C1CCC(O)CC1 (stereo not shown)	human CYP2D6 (Homo sapiens, UniProt P10635)	Inactive
Nc1ccccc1S(=O)(=O)c1ccccc1	human CYP2D6 (Homo sapiens, UniProt P10635)	Inactive
CC(=O)O[C@]1(C(C)=O)CC[C@H]2[C@@H]3C=C(C)C4=CC(=O)CC[C@]4(C)[C@H]3CC[C@@]21C [Megestrol acetate]	human CYP2D6 (Homo sapiens, UniProt P10635)	Inactive
CC1(C)[C@H](C(=O)O[C@H](C#N)c2cccc(Oc3ccccc3)c2)[C@@H]1C=C(Br)Br	human CYP2D6 (Homo sapiens, UniProt P10635)	Inconclusive inhibitor
COC(=O)Cc1cccc2ccccc12 [Methyl 1-naphthaleneacetate]	human CYP2D6 (Homo sapiens, UniProt P10635)	Inactive
CCCCCCC(C=O)=Cc1ccccc1	human CYP2D6 (Homo sapiens, UniProt P10635)	Inactive
CCCCCC=CCC1CC(=O)OC1=O (stereo not shown) [2-Octen-1-ylsuccinic anhydride]	human CYP2D6 (Homo sapiens, UniProt P10635)	Inactive
O=C1OC(=O)c2cc(Oc3ccc4c(c3)C(=O)OC4=O)ccc21	human CYP2D6 (Homo sapiens, UniProt P10635)	Inactive
c1cnc2c(c1)ccc1cccnc12	human CYP2D6 (Homo sapiens, UniProt P10635)	Inconclusive inhibitor
CCC(CC)Nc1ccc(C)c(C)c1	human CYP2D6 (Homo sapiens, UniProt P10635)	Inconclusive inhibitor
CCCOC(=O)c1c(Cl)c(Cl)c(Cl)c(Cl)c1C(=O)OCCC	human CYP2D6 (Homo sapiens, UniProt P10635)	Inconclusive inhibitor
Oc1ccc(Cc2ccc(O)cc2)cc1 [Bis(4-hydroxyphenyl)methane]	human CYP2D6 (Homo sapiens, UniProt P10635)	Inconclusive inhibitor
O=C(NC(=O)c1c(F)cccc1F)Nc1cc(Cl)c(F)c(Cl)c1F	human CYP2D6 (Homo sapiens, UniProt P10635)	Inactive
Cc1ccc([N+](=O)[O-])c(N)c1	human CYP2D6 (Homo sapiens, UniProt P10635)	Inactive
C[C@@H]1O[C@@H](O[C@@H]2C=C3CC[C@@H]4[C@H](CC[C@]5(C)[C@@H](c6ccc(=O)oc6)CC[C@]45O)[C@@]3(C)CC2)[C@H](O)[C@H](O)[C@H]1O	human CYP2D6 (Homo sapiens, UniProt P10635)	Inactive
CC(C)(C)c1cccc(O)c1	human CYP2D6 (Homo sapiens, UniProt P10635)	Inactive
O=C(O)c1cc(C(=O)O)cc([N+](=O)[O-])c1	human CYP2D6 (Homo sapiens, UniProt P10635)	Inactive
COC(=O)CCCCCCCC(=O)OC [Dimethyl nonanedioate]	human CYP2D6 (Homo sapiens, UniProt P10635)	Inconclusive inhibitor
CCC(=O)c1ccc(O)cc1	human CYP2D6 (Homo sapiens, UniProt P10635)	Inactive
O=S(=O)(c1ccc(O)cc1)c1ccc(O)cc1	human CYP2D6 (Homo sapiens, UniProt P10635)	Inactive
N#CCc1ccc(Cl)cc1Cl	human CYP2D6 (Homo sapiens, UniProt P10635)	Inactive
CC(=O)O[C@@H]1C[C@H]2[C@@H]3CCc4cc(OC(=O)c5ccccc5)ccc4[C@H]3CC[C@]2(C)[C@H]1OC(C)=O [Estriol benzoate diacetate]	human CYP2D6 (Homo sapiens, UniProt P10635)	Inactive
CC=CC(=O)N(CC)c1ccccc1C (mixture of isomers)	human CYP2D6 (Homo sapiens, UniProt P10635)	Inactive
CCOC(=O)CC(CC(=O)OCC)(OC(C)=O)C(=O)OCC [Acetyltriethyl citrate]	human CYP2D6 (Homo sapiens, UniProt P10635)	Inactive
O=[N+]([O-])c1ccc2c3c(cccc13)CC2	human CYP2D6 (Homo sapiens, UniProt P10635)	Inactive
CCCCC(CC)C(=O)[O-].CCCCC(CC)C(=O)[O-].[Ba+2] (stereo not shown) [Barium bis(2-ethylhexanoate)]	human CYP2D6 (Homo sapiens, UniProt P10635)	Inactive

---

Molecular target: human CYP2C9 (Homo sapiens)
Sequence (P11712 whole entry): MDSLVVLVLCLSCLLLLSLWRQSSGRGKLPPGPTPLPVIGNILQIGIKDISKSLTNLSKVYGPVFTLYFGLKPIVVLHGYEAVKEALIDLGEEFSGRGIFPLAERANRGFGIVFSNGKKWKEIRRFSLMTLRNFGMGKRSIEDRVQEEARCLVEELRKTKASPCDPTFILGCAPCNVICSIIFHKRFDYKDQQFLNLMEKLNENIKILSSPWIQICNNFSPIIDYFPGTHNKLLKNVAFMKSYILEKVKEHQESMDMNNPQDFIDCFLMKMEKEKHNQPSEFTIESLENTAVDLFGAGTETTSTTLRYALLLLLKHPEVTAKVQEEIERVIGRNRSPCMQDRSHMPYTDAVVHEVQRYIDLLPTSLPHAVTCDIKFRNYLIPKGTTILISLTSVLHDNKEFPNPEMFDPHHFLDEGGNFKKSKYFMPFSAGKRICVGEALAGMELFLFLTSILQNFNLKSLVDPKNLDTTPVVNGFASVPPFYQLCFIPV
Assay: biochemical
Settings: CYP2C9 AC50 (half-maximal activity concentration)
quantity kind: log10(AC50) (log10 of the value in µM)

compound	assay result
CC(COc1ccc(Oc2ccccc2)cc1)Oc1ccccn1 (stereo not shown)	1.08
CCNc1nc(NC(C)C)nc(OC)n1	1.59
CC(C)N(Cc1ccccc1)C(=O)C(C)(C)C	1.54
Cc1ccc2c(c1N)C(=O)c1ccccc1C2=O	0.53
CC(C)N(C(=O)COc1nnc(C(F)(F)F)s1)c1ccc(F)cc1	1.55
CCOC(=O)C1OC1(C)c1ccccc1 (stereo not shown) [Ethyl methylphenylglycidate]	1.79
O=[N+]([O-])c1ccccc1-c1ccccc1	1.35
CC(=O)OCC(=O)[C@@]12N=C(C)O[C@@H]1C[C@H]1[C@@H]3CCC4=CC(=O)C=C[C@]4(C)[C@H]3[C@@H](O)C[C@@]12C	1.78
Nc1ccc(S(=O)(=O)Nc2nccs2)cc1	1.12
CC(C)N(C(=O)SCC(Cl)=C(Cl)Cl)C(C)C [Tri-allate]	1.52
O=c1[nH]sc2ccccc12	1.54
O[Si](c1ccccc1)(c1ccccc1)c1ccccc1	-0.28
CC(=O)O[C@]1(C(C)=O)CC[C@H]2[C@@H]3C=C(Cl)C4=CC(=O)[C@@H]5C[C@@H]5[C@]4(C)[C@H]3CC[C@@]21C [Cyproterone acetate]	1.18
CCCCCCCCOc1ccc(C(=O)c2ccccc2)c(O)c1	1.14
CCOP(=O)(Sc1ccccc1)Sc1ccccc1	1.47
CC1(C)C(C=C(Cl)Cl)C1C(=O)OC(C#N)c1cccc(Oc2ccccc2)c1 (stereo not shown) [Cypermethrin]	1.08
CCCCCCCC(=O)Oc1c(Br)cc(C#N)cc1Br [Bromoxynil octanoate]	1.54
O=C(O)Cn1c(C(=O)Nc2nc(-c3ccccc3Cl)cs2)cc2ccccc21	1.55
O=c1[nH]c2ccccc2n1CCCN1CCN(C(c2ccccc2)c2ccccc2)CC1 [Oxatomide]	1.40

---

CYP2D6 AC50 (half-maximal activity concentration) data for human CYP2D6 (Homo sapiens) follow.
Counter-ions that a name gives are not always drawn.
quantity kind: CYP2D6 AC50 (half-maximal activity concentration)

compound	assay result
O=C(OCCCCCCOC(=O)c1ccccc1)c1ccccc1 [Hexane-1,6-diyl dibenzoate]	Inactive
CCCCCCCCCCOS(=O)(=O)O [Sodium decyl sulfate]	Inconclusive inhibitor
C/C=C1/C(=O)C[C@H]2[C@@H]3CCC4=CC(=O)CC[C@]4(C)[C@H]3CC[C@]12C [Guggulsterone E]	Inactive
Oc1cc(Cl)c(Cl)cc1Cl [2,4,5-Trichlorophenol]	Inactive
CC(C)(C)c1ccc(CSc2cnn(C(C)(C)C)c(=O)c2Cl)cc1 [Pyridaben]	Inactive
CCOC(=O)CCCCCCCCC(=O)OCC [Diethyl decanedioate]	Inactive
CC(=O)[O-].CC(=O)[O-].CC(=O)[O-].[Cr+3] [Chromium(III) acetate]	Inactive
O=C(OCCOCCOCCOC(=O)c1ccccc1)c1ccccc1 [Triethylene glycol dibenzoate]	Inconclusive inhibitor
CCOC(=O)C(C)Oc1ccc(Oc2nc3ccc(Cl)cc3o2)cc1 (stereo not drawn) [Fenoxaprop-ethyl]	Inconclusive inhibitor
